# assayTarget: 5-hydroxytryptamine receptor 2A (Homo sapiens)
# Sequence (P28223 whole entry): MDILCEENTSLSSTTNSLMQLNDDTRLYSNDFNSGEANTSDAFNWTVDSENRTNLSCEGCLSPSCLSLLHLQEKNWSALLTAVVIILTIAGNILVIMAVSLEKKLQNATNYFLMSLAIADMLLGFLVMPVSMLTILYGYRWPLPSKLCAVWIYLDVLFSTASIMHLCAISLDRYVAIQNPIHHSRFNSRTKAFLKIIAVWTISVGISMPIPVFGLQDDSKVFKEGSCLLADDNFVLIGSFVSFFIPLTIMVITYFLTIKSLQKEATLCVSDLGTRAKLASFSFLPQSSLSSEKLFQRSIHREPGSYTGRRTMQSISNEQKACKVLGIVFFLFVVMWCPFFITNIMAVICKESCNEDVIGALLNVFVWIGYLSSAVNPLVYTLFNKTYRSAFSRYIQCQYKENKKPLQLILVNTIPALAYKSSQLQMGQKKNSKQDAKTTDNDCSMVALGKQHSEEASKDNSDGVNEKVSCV
# assayProcedure: Displacement of [125I]DOI from human cloned 5HT2A receptor expressed in CHO cells
endpointName: IC50 (nM)

CN(C)CCn1cc(S(=O)(=O)c2cccc(Cl)c2)c2cccnc21    131
CN(C)CCn1cc(S(=O)(=O)c2cccc(F)c2)c2cccnc21    351

[a] NCCn1cc(S(=O)(=O)c2cccc(Cl)c2)c2cccnc21
[b] CN(C)CCn1cc(S(=O)(=O)c2cccc3ccccc23)c2cccnc21
Prompt line: Lab log: flag the item ( a or b ) with the smaller IC50 figure. API: response body contains the label of the selected item.
Response line: a

###

# assayTarget: UniProtKB P50406
# assayProcedure: Agonist activity at human cloned 5HT6 receptor expressed in HeLa cells assessed as induction of adenylyl cyclase activity by RIA
pEC50: −log10 of the molar value.
endpointName: pEC50

CN(C)CCn1cc(S(=O)(=O)c2ccccc2)c2cccnc21    7.60
CN(C)CCn1cc(S(=O)(=O)c2c(Cl)cccc2Cl)c2cccnc21    7.51
CN(C)CCn1cc(S(=O)(=O)c2cccc3ccccc23)c2cccnc21    7.29
NCCn1cc(S(=O)(=O)c2cc(Cl)cc(Cl)c2)c2cccnc21    7.46
NCCn1cc(S(=O)(=O)c2ccccc2)c2ccccc21    6.75
NCCn1cc(S(=O)(=O)c2ccc(F)cc2)c2cccnc21    6.78
Cc1c(S(=O)(=O)c2ccccc2)c2cccnc2n1CCN    7.70

[a] CN(C)CCn1cc(S(=O)(=O)c2c(Cl)nc3sccn23)c2cccnc21
[b] NCCn1cc(S(=O)(=O)c2ccccc2)c2cccnc21
[c] NCCn1cc(S(=O)(=O)c2cccc3ccccc23)c2cccnc21
Prompt line: Sort these molecules on pEC50 so the largest reading comes first. I'd appreciate it if you listed the labels in the requested order.
Response line: b, c, a
(b: 7.57, c: 7.20, a: 6.92)

###

# assayTarget: 5-hydroxytryptamine receptor 6 (Homo sapiens, UniProt P50406)
# Sequence (P50406 whole entry): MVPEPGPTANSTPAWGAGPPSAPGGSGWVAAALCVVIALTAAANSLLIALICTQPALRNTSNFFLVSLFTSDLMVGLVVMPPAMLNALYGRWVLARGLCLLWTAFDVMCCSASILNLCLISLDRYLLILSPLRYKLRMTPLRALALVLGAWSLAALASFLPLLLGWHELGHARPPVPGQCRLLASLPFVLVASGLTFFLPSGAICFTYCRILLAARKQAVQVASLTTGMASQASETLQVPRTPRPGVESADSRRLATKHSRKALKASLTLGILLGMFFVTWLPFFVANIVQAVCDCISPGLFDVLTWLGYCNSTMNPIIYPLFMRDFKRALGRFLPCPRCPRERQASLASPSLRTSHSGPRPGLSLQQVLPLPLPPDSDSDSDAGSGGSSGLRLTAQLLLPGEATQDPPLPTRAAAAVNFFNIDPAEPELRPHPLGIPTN
# assayProcedure: Agonist activity at human cloned 5HT6 receptor expressed in HeLa cells assessed as induction of adenylyl cyclase activity by RIA relative to serotonin
# Assay type: functional, cell-based
endpointName: Emax (%)

NCCn1cc(S(=O)(=O)c2cccc(Cl)c2)c2cccnc21    94
NCCn1cc(S(=O)(=O)c2cccc(C(F)(F)F)c2)c2cccnc21    83
CN(C)CCn1cc(S(=O)(=O)c2cc(Cl)cc(Cl)c2)c2cccnc21    80
CN(C)CCn1cc(S(=O)(=O)c2ccc(F)cc2)c2cccnc21    84
CN(C)CCn1cc(S(=O)(=O)c2cccc(F)c2)c2cccnc21    100
NCCn1cc(S(=O)(=O)c2cc(Cl)cc(Cl)c2)c2cccnc21    65
NCCn1cc(S(=O)(=O)c2ccccc2C(F)(F)F)c2cccnc21    97
NCCn1cc(S(=O)(=O)c2cccc3ccccc23)c2cccnc21    65
CN(C)CCn1cc(S(=O)(=O)c2cccc(Cl)c2)c2cccnc21    86
CN(C)CCn1cc(S(=O)(=O)c2ccccc2)c2cccnc21    94
Cc1c(S(=O)(=O)c2ccccc2)c2cccnc2n1CCN(C)C    100
NCCn1cc(S(=O)(=O)c2cccc(F)c2)c2cccnc21    100
Cc1c(S(=O)(=O)c2ccccc2)c2cccnc2n1CCN    85
CN(C)CCn1cc(S(=O)(=O)c2cccs2)c2cccnc21    74
CN(C)CCn1cc(S(=O)(=O)c2c(Cl)nc3sccn23)c2cccnc21    71
